Test system: CD2F1 mice, L1210 leukemia ip, survival T/C
protocolText: NCI In Vivo Anticancer Drug Screen. Data for tumor model L1210 Leukemia (intraperitoneal) in CD2F1 (CDF1) mice
reportedConditions: endpoint: mean survival time; dose: 200.0 mg/kg/injection; schedule: Q04DX003 (ip); vehicle: Klucel (hydroxypropylcellulose) (HPC); higher = longer survival
Inconclusive results and toxic doses are left out.
property: T/C

Below, each entry is followed by its recorded T/C result.
compound="CC12CCC(=O)C=C1CCC1C2C(=O)CC2(C)C1CCC2(O)C(=O)Cn1c(=O)cc[nH]c1=O (configuration not stated)" property=T/C result="97 % of control"
compound=CCOC(=O)C[N+](CC)(CC)CC property=T/C result="96 % of control"
compound=C(=N\Nc1nc2ccccc2s1)/c1ccnc2ccccc12 property=T/C result="92 % of control"
compound=O=C(CC(=O)c1cccc([N+](=O)[O-])c1)Nc1cccc([N+](=O)[O-])c1 property=T/C result="96 % of control"
compound="CCCCCCCCC1SC1CCCCCCCC(=O)OCCOCCOCC (configuration not stated)" property=T/C result="104 % of control"
compound="CC1CCCC2C(=O)OC(=O)C12 (configuration not stated)" property=T/C result="98 % of control"
compound="CCOC(=O)C(C)C(O)(c1ccccc1)c1ccccc1 (configuration not stated)" property=T/C result="101 % of control"
compound="Cc1c[nH]c(=O)n(CC(=O)C2(O)CCC3C4CCC5=CC(=O)CCC5(C)C4CCC32C)c1=O (configuration not stated)" property=T/C result="100 % of control"
compound="CC(=O)C(C(c1ccccc1)N1CCCc2ccccc21)N1CCOCC1 (configuration not stated)" property=T/C result="101 % of control"
compound="CC(=O)C1=CCC2[C@H]3CC=C4C[C@H](O)CC[C@@]4(C)C3CC[C@@]12C (some centres not stated)" property=T/C result="103 % of control"

Parameters: items (list). Returns: T/C for each item.
1. CCOC(=O)C(CC(=O)O)=C1c2ccccc2-c2ccccc21
2. CCOC1(C)CCC/C(=N/Nc2ccc([N+](=O)[O-])cc2[N+](=O)[O-])C1 (configuration not stated)

Completion:
1: 93 % of control; 2: 100 % of control
